Tested on: spleen T cells
experiment_notes: T cell proliferation inhibition (CFSE, FACS), CD3/CD28-activated spleen T cells
Assay type: cell-based, C57BL/6 mice
settings: Mus musculus, T-cell, 72 h; Table 2; 50 μM; 3 days; relative to CD3/CD28+DMSO; read-out: Proliferation inhibition rate (%)
property: inhibition at 50 µM (%)

• CCCCCCCCCCCCNC(=O)c1cccc(Cl)c1N = 65
• CCCCCCCCCCCCNC(=O)c1ccccc1-c1ncc[nH]1 = 100
• CCCCCCCCCCCCNC(=O)Cc1ccccc1 = 99
• CCCCCCCCCCCCNC(=O)c1ncccc1Br = 86
• CCCCCCCCCCCCNC(=O)c1ccccc1C(=O)O = 65
